tested-system: Serine/threonine-protein kinase LATS1 (Homo sapiens); further: in the data inactive means no Kd found up to 30 µM
Sequence (O95835 whole entry): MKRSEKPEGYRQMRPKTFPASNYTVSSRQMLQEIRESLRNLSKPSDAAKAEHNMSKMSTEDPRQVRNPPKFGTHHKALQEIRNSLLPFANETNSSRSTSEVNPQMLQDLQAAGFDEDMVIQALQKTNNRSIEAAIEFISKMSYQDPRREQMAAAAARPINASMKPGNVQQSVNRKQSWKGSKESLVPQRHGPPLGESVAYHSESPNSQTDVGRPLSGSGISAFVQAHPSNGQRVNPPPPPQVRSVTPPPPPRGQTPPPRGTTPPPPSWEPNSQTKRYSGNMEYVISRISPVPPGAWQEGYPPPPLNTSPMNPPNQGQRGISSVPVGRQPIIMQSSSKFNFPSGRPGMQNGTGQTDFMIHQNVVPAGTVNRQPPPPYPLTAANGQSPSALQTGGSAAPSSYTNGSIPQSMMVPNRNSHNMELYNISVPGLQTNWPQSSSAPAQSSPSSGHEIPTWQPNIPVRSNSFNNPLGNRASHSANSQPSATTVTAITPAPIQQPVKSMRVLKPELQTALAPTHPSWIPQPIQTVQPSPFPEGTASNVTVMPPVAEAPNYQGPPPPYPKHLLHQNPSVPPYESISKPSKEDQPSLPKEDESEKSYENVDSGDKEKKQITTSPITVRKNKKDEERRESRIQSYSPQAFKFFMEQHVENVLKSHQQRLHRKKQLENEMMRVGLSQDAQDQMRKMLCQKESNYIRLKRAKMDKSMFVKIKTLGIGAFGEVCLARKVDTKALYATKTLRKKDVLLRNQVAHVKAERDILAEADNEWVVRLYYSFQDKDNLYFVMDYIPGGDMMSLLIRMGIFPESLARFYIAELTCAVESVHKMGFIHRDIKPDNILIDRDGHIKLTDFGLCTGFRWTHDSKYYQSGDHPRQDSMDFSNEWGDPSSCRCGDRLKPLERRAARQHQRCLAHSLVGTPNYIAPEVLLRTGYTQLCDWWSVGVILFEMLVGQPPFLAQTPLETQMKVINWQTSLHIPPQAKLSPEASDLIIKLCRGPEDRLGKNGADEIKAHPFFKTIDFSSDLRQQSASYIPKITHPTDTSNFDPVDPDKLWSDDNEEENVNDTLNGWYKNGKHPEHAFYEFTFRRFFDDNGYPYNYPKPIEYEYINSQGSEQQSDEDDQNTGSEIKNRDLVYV
Active and inactive are the calls of the source.
Bench note: report the call from TRUE (active), FALSE (inactive)

// param item: Cc1nc(Nc2n[nH]c3c2CN(C(=O)N[C@H](CN(C)C)c2ccccc2)C3(C)C)c2sccc2n1 ; yields the recorded call
TRUE

// param item: CCn1cc(-c2ccnc3[nH]c(-c4cccc(CN(C)C)c4)cc23)c(-c2ccc(NC(=O)N(C)C)cc2)n1 ; yields the recorded call
FALSE

// param item: O=C(Cc1ccc(-c2ccc(OCCN3CCOCC3)cc2)cn1)NCc1ccccc1 ; yields the recorded call
FALSE

// param item: CCn1c(C(=O)N(C2CC2)C2CC2)cc2c3c(ncn3C)c(Nc3cc(C)n(C)n3)nc21 ; yields the recorded call
FALSE

* * *

tested-system: Serine/threonine-protein kinase 16 (Homo sapiens, UniProt O75716); further: in the data inactive means no Kd found up to 30 µM
Sequence (O75716 whole entry): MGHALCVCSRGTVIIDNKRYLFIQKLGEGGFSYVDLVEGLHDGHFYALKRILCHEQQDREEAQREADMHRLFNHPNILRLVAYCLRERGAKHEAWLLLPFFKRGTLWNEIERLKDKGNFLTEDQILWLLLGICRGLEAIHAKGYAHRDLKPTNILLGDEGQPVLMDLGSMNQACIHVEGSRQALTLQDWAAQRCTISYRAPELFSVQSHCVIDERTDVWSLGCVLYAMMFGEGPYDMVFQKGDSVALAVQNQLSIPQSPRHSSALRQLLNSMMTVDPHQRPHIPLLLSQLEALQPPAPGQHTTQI
Calls of active or inactive are those of the source.
Bench note: report the call from 1.0 for active, 0.0 for inactive

// param item: COc1ncc(-c2ccc3nccc(-c4ccnnc4)c3c2)cc1NS(=O)(=O)c1ccc(F)cc1F ; yields the recorded call
0.0

// param item: COc1cc([C@@H]2c3cc4c(cc3[C@H](O)[C@H]3COC(=O)[C@@H]23)OCO4)cc(OC)c1OC ; yields the recorded call
0.0

// param item: CCn1cc(-c2ccnc3[nH]c(-c4cccc(CN(C)C)c4)cc23)c(-c2ccc(NC(=O)N(C)C)cc2)n1 ; yields the recorded call
0.0

// param item: NC1(c2ccc(-c3nc4ccn5c(=O)[nH]nc5c4cc3-c3ccccc3)cc2)CCC1 ; yields the recorded call
0.0

// param item: CCn1c(C(=O)N(C2CC2)C2CC2)cc2c3c(ncn3C)c(Nc3cc(C)n(C)n3)nc21 ; yields the recorded call
0.0

// param item: CNC(=O)c1nn(C)c2c1C(C)(C)Cc1cnc(Nc3ccc(N4CCN(C)CC4)cc3)nc1-2 ; yields the recorded call
1.0

// param item: C[C@@H](Oc1cc(C(=O)Nc2ccc(C(=O)N3CCN(C)CC3)cc2)nnc1N)c1c(Cl)ccc(F)c1Cl ; yields the recorded call
0.0

// param item: Cc1cnc(NC(=O)Nc2cc(Br)c(C)cc2OC[C@@H]2CNCCO2)cn1 ; yields the recorded call
0.0

// param item: O=C1NC(=O)[C@@H](c2cn3c4c(cccc24)CCC3)[C@@H]1c1c[nH]c2ccccc12 [TIVANTINIB] ; yields the recorded call
0.0

// param item: CCS(=O)(=O)c1cccc(-c2cc(C(=O)NC3CCN(C)CC3)c(C)c3[nH]c4ncc(C)cc4c23)c1 ; yields the recorded call
1.0

// param item: COc1cc2c(Nc3ccc(Cl)c(Cl)c3F)ncnc2cc1OC[C@@H]1C[C@@H]2CN(C)C[C@@H]2C1 ; yields the recorded call
0.0

// param item: NC(=O)c1c(OCc2c(F)cc(Br)cc2F)nsc1NC(=O)NCCCCN1CCCC1 ; yields the recorded call
0.0

// param item: C[C@@H](N)c1ccc(C(=O)Nc2ccnc3[nH]ccc23)cc1 ; yields the recorded call
0.0

// param item: CC(C)(C)c1nc(-c2cccc(NS(=O)(=O)c3c(F)cccc3F)c2F)c(-c2ccnc(N)n2)s1 ; yields the recorded call
0.0

// param item: Cc1nc2cc(-c3nn(C(C)C)c4ncnc(N)c34)ccc2o1 ; yields the recorded call
1.0

// param item: Cc1cccc(-c2nn3c(c2-c2ccnc4ccc(C(N)=O)cc24)CCC3)n1 ; yields the recorded call
0.0

// param item: Cn1ncc(Cl)c1-c1cc(C(=O)N[C@H](CN)Cc2ccc(F)c(F)c2)oc1Cl ; yields the recorded call
0.0

// param item: COc1c(OCCCN2CCOCC2)ccc2c1N=C(NC(=O)c1cnc(N)nc1)N1CCN=C21 ; yields the recorded call
0.0

// param item: C#Cc1cccc(Nc2ncnc3cc(OC)c(OCCCCCCC(=O)NO)cc23)c1 ; yields the recorded call
0.0

// param item: Cc1csc(-c2nnc(Nc3ccc(Oc4ncccc4-c4ccnc(N)n4)cc3)c3ccccc23)c1 ; yields the recorded call
0.0

// param item: CC(C)c1cc(CNc2nc(Nc3cc(C4CC4)[nH]n3)cc(N3CCN(C)CC3)n2)on1 ; yields the recorded call
0.0

// param item: NC(=O)Nc1cc(-c2cccc(F)c2)sc1C(=O)N[C@H]1CCCNC1 ; yields the recorded call
0.0

// param item: Cc1nc(NC(=O)N2CCC[C@H]2C(N)=O)sc1-c1ccnc(C(C)(C)C(F)(F)F)c1 ; yields the recorded call
0.0

// param item: CN1CCN(CCOc2cc(OC3CCOCC3)c3c(Nc4c(Cl)ccc5c4OCO5)ncnc3c2)CC1 ; yields the recorded call
0.0

// param item: Nc1ncnc2c1c(-c1cccc(OCc3ccccc3)c1)cn2[C@H]1C[C@@H](CN2CCC2)C1 ; yields the recorded call
0.0

// param item: CNC(=O)c1cccc2cc(Oc3ccnc4cc(OCC5(N)CC5)c(OC)cc34)ccc12 ; yields the recorded call
0.0

// param item: Cn1cc(-c2cnn3c(N)c(Br)c([C@@H]4CCCNC4)nc23)cn1 ; yields the recorded call
0.0

// param item: C[C@@H](NC(=O)c1ncnc(N)c1Cl)c1ncc(C(=O)Nc2cc(C(F)(F)F)c(Cl)cn2)s1 ; yields the recorded call
0.0

// param item: FC(F)(F)c1ccc(/C=C/c2nc(COc3ccc(CCCCn4ccnn4)cc3)co2)cc1 ; yields the recorded call
0.0

// param item: COCc1c(-c2ccc(NC(=O)Nc3cc(C(F)(F)F)ccc3F)c(F)c2)c2c(N)ncnn2c1CN1CCOCC1 ; yields the recorded call
0.0

// param item: CCNC(=O)C#Cc1ccc2c(c1)NC(=O)/C2=C(\Nc1ccc(CN(C)C)cc1)c1ccccc1 ; yields the recorded call
0.0

// param item: N#CC1(c2ccc(NC(=O)c3cccnc3NCc3ccncc3)cc2)CCCC1 ; yields the recorded call
0.0

// param item: COc1cc(Nc2ncc3c(n2)-c2ccc(Cl)cc2C(c2c(F)cccc2OC)=NC3)ccc1C(=O)O ; yields the recorded call
0.0
